Numbers sourced from paper PMC8071163.

Listed here: items and their measured inhibition at 10 µM.
molecular target: hA2AAR (Homo sapiens); construct: expressed in transfected cells; host or cells: HeLa-A2A cells (membranes); test: Radioligand competition binding assay at hA2AAR ([3H]ZM241385)
Sequence (P29274 whole entry): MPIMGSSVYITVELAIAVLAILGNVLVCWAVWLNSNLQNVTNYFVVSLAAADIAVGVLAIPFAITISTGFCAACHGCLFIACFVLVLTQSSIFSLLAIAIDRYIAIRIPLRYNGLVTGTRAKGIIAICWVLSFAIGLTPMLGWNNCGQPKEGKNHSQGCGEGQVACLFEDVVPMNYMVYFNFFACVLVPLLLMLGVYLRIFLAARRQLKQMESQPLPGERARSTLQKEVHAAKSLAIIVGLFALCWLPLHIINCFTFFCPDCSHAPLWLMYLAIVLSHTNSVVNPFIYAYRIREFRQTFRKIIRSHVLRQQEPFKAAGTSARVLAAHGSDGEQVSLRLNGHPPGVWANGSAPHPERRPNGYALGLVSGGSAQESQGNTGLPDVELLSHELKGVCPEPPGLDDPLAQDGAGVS
observable: inhibition at 10 µM (%)

INSERT INTO results (query_smiles, recorded_measurement) VALUES
  ('CN(C)C(=O)[C@H]1[Se][C@@H](n2cnc3c(NCc4cccc(Br)c4)ncnc32)[C@H](O)[C@@H]1O', 37),
  ('CN(C)C(=O)[C@H]1[Se][C@@H](n2cnc3c(NCc4cccc(I)c4)ncnc32)[C@H](O)[C@@H]1O', 32),
  ('CN(C)C(=O)[C@H]1[Se][C@@H](n2cnc3c(NCc4cccc(F)c4)nc(Cl)nc32)[C@H](O)[C@@H]1O', 9),
  ('CN(C)C(=O)[C@H]1[Se][C@@H](n2cnc3c(N)ncnc32)[C@H](O)[C@@H]1O', 22),
  ('CN(C)C(=O)[C@H]1[Se][C@@H](n2cnc3c(NCc4cccc(Cl)c4)ncnc32)[C@H](O)[C@@H]1O', 4),
  ('CN(C)C(=O)[C@H]1[Se][C@@H](n2cnc3c(N)nc(Cl)nc32)[C@H](O)[C@@H]1O', 3),
  ('CN(C)C(=O)[C@H]1[Se][C@@H](n2cnc3c(NCc4cccc(Cl)c4)nc(Cl)nc32)[C@H](O)[C@@H]1O', 13),
  ('CN(C)C(=O)[C@H]1[Se][C@@H](n2cnc3c(NCc4cccc(Br)c4)nc(Cl)nc32)[C@H](O)[C@@H]1O', 10),
  ('CNc1nc(Cl)nc2c1ncn2[C@@H]1[Se][C@H](C(=O)N(C)C)[C@@H](O)[C@H]1O', 5),
  ('CNc1ncnc2c1ncn2[C@@H]1[Se][C@H](C(=O)N(C)C)[C@@H](O)[C@H]1O', 3),
  ('CN(C)C(=O)[C@H]1[Se][C@@H](n2cnc3c(NCc4cccc(I)c4)nc(Cl)nc32)[C@H](O)[C@@H]1O', 10),
  ('CN(C)C(=O)[C@H]1[Se][C@@H](n2cnc3c(NCc4cccc(F)c4)ncnc32)[C@H](O)[C@@H]1O', 12);
